Molecular target: SFRS2 (Homo sapiens)
Sequence: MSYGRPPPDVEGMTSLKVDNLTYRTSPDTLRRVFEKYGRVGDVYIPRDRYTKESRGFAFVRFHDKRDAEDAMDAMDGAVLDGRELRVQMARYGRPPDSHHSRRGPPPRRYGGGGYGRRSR
Assay: protein domain microarray probed with biotinylated miRNA; Domain array: 20 mM Tris-HCl pH 7.4, 200 mM KCl, 0.2 mM EDTA, 0.05% NP40, 2 ug/ul heparin, overnight 4 C. ORF array: PBS pH 7.0 with RNase inhibitor, 100 ng RNA; high values mean tight binding
Details: ssRNA
In this section we review reported binding signal values for a set of sequences.

sequenceCode | binding signal
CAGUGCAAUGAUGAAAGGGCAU | 1100 fluorescence intensity
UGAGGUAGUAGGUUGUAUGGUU | 1110 fluorescence intensity
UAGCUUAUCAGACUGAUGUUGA | 480 fluorescence intensity
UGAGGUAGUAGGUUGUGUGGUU | 1220 fluorescence intensity

====

Biological target: RBM33 (Homo sapiens)
Sequence: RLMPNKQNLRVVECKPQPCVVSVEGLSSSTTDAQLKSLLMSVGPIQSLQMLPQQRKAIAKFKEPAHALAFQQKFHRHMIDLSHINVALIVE
Experiment: protein domain microarray probed with biotinylated miRNA; Domain array: 20 mM Tris-HCl pH 7.4, 200 mM KCl, 0.2 mM EDTA, 0.05% NP40, 2 ug/ul heparin, overnight 4 C. ORF array: PBS pH 7.0 with RNase inhibitor, 100 ng RNA; high values mean tight binding
Conditions: ssRNA
Reported binding signal values are given for each entry in this list.
measurementType: binding signal (fluorescence intensity)

sequenceCode | quantitativeReadout
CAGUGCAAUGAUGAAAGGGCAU | 26.1
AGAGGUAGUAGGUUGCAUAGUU | 28.3
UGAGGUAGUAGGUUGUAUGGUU | 40.1
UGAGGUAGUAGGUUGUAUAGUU | 24.2

====

This listing pairs sequences with measured binding signal.
Target: YTHDC2 (Homo sapiens, UniProt Q9H6S0)
Sequence: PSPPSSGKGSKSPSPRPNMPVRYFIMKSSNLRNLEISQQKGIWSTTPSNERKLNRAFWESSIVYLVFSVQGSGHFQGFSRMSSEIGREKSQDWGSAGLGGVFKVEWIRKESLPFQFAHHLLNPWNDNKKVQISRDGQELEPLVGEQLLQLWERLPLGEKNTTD
Experiment: protein domain microarray probed with biotinylated miRNA; Domain array: 20 mM Tris-HCl pH 7.4, 200 mM KCl, 0.2 mM EDTA, 0.05% NP40, 2 ug/ul heparin, overnight 4 C. ORF array: PBS pH 7.0 with RNase inhibitor, 100 ng RNA; high values mean tight binding
Conditions: ssRNA

sequenceCode | unitAbbreviation | binding signal
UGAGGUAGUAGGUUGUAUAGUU | fluorescence intensity | 27.7
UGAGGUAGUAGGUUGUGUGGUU | fluorescence intensity | 156
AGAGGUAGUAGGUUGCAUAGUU | fluorescence intensity | 114
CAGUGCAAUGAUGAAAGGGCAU | fluorescence intensity | 65.2

====

Quick reference for binding signal among some sequences
Target: RED1(1)/ADARB1 (Homo sapiens)
Assay: protein domain microarray probed with biotinylated miRNA; Domain array: 20 mM Tris-HCl pH 7.4, 200 mM KCl, 0.2 mM EDTA, 0.05% NP40, 2 ug/ul heparin, overnight 4 C. ORF array: PBS pH 7.0 with RNase inhibitor, 100 ng RNA; high values mean tight binding
Details: ssRNA
measurementType: binding signal (fluorescence intensity)

sequenceCode | measurementType | unitAbbreviation | quantitativeReadout
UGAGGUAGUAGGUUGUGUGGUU | binding signal | fluorescence intensity | 230
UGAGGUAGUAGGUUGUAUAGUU | binding signal | fluorescence intensity | 40.7
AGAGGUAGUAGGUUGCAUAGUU | binding signal | fluorescence intensity | 152
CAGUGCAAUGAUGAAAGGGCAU | binding signal | fluorescence intensity | 67.6

====

Target: CELF2(3) (Homo sapiens)
Sequence (O95319 396-508): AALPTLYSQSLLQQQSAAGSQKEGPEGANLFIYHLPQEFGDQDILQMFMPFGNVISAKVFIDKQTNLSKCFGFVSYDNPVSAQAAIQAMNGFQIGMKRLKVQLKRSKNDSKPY
Test: protein domain microarray probed with biotinylated miRNA; Domain array: 20 mM Tris-HCl pH 7.4, 200 mM KCl, 0.2 mM EDTA, 0.05% NP40, 2 ug/ul heparin, overnight 4 C. ORF array: PBS pH 7.0 with RNase inhibitor, 100 ng RNA; high values mean tight binding
Details: ssRNA
binding signal values for the sequences below.
measurementType: binding signal (fluorescence intensity)

sequenceCode | quantitativeReadout
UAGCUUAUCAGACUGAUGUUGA | 1040
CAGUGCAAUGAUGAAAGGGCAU | 1010
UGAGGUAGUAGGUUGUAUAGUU | 2180
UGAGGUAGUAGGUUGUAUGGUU | 2750

====

Target: RNPC3(2) (Homo sapiens)
Sequence: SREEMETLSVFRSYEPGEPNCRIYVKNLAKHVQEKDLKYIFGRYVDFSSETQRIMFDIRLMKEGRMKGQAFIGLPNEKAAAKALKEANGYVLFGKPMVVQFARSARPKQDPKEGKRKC
Test: protein domain microarray probed with biotinylated miRNA; Domain array: 20 mM Tris-HCl pH 7.4, 200 mM KCl, 0.2 mM EDTA, 0.05% NP40, 2 ug/ul heparin, overnight 4 C. ORF array: PBS pH 7.0 with RNase inhibitor, 100 ng RNA; high values mean tight binding
Conditions: ssRNA
Measured binding signal, listed per entry for reference.
measurementType: binding signal (fluorescence intensity)

sequenceCode | systemTested | quantitativeReadout
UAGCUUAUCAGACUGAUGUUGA | RNPC3(2) (Homo sapiens) | 72.3
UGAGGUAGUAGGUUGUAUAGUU | RNPC3(2) (Homo sapiens) | 32.3
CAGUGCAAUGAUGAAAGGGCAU | RNPC3(2) (Homo sapiens) | 138
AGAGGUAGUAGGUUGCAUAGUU | RNPC3(2) (Homo sapiens) | 168

====

Property: binding signal; scope: individual sequences
Target: ZNF638 (Homo sapiens, UniProt Q14966)
Sequence: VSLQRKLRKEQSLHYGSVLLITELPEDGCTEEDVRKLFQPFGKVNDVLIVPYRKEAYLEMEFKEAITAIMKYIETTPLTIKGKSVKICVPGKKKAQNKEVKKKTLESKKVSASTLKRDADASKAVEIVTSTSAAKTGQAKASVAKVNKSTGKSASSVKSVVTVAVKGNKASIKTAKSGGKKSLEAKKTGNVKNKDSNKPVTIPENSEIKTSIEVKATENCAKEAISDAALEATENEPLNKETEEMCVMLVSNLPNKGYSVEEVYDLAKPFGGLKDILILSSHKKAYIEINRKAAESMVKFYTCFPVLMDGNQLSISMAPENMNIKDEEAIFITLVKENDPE
Experiment: protein domain microarray probed with biotinylated miRNA; Domain array: 20 mM Tris-HCl pH 7.4, 200 mM KCl, 0.2 mM EDTA, 0.05% NP40, 2 ug/ul heparin, overnight 4 C. ORF array: PBS pH 7.0 with RNase inhibitor, 100 ng RNA; high values mean tight binding
Conditions: ssRNA

sequenceCode | unitAbbreviation | binding signal
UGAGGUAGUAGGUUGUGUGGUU | fluorescence intensity | 57.9
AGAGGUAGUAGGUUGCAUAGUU | fluorescence intensity | 29.2
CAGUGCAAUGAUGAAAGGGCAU | fluorescence intensity | 33.6
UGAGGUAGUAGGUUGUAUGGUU | fluorescence intensity | 38.3

====

Target: SRRP35 (Homo sapiens, UniProt Q8WXF0)
Sequence (Q8WXF0 1-120): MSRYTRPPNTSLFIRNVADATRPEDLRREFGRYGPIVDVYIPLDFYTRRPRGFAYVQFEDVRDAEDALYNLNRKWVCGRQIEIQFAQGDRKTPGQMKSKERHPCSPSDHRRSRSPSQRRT
Test: protein domain microarray probed with biotinylated miRNA; Domain array: 20 mM Tris-HCl pH 7.4, 200 mM KCl, 0.2 mM EDTA, 0.05% NP40, 2 ug/ul heparin, overnight 4 C. ORF array: PBS pH 7.0 with RNase inhibitor, 100 ng RNA; high values mean tight binding
Conditions: ssRNA

sequenceCode | binding signal / fluorescence intensity
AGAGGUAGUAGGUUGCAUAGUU | 735
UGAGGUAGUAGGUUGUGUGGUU | 644
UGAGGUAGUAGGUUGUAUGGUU | 570
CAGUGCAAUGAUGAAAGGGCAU | 882

====

Molecular target: BOLL (Homo sapiens, UniProt Q8N9W6)
Sequence: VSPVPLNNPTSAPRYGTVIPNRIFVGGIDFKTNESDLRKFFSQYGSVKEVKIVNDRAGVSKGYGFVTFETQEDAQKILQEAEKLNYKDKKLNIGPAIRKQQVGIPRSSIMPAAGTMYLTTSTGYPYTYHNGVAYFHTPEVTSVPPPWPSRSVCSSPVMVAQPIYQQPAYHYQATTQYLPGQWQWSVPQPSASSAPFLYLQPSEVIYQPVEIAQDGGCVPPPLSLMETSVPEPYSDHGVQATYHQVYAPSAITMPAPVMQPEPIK
Experiment: protein domain microarray probed with biotinylated miRNA; Domain array: 20 mM Tris-HCl pH 7.4, 200 mM KCl, 0.2 mM EDTA, 0.05% NP40, 2 ug/ul heparin, overnight 4 C. ORF array: PBS pH 7.0 with RNase inhibitor, 100 ng RNA; high values mean tight binding
Conditions: ssRNA
Each record here notes measured binding signal.

sequenceCode | binding signal, fluorescence intensity
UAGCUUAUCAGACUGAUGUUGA | 567
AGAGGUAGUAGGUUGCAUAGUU | 995
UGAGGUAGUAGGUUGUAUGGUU | 423
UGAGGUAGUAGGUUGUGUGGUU | 986

This collection of values is drawn from paper PMC11574364.
